study_target: Glucagon-like peptide 2 receptor (Homo sapiens) (UniProt O95838)
assay: Positive ago-allosteric modulation of GLP2R overexpressed in human SE302 cells assessed as placental alkaline phosphatase activation at 25 uM measured on day 3 by Alamar Blue assay relative to 100 pM GLP2
Type: cell-based
value_type: %max (%)

CC(C)(C)c1cc(/C(CSc2ccccc2)=N/O)cc(C(C)(C)C)c1    31
Cc1cccc(SC/C(=N\O)c2cc(Cl)sc2Cl)c1    30
O/N=C(\CSc1ccccc1Cl)c1cc(Cl)sc1Cl    60
CCCOc1cccc(/C(CSc2ccccc2)=N/O)c1    9
Cc1cccc(C)c1SC/C(=N\O)c1cc(Cl)sc1Cl    10
Cn1nc(-c2ccccc2)cc1/C(CSc1ccccc1)=N/O    14
CCc1ccccc1SC/C(=N\O)c1cc(Cl)sc1Cl    63
O/N=C(\CSc1ccccc1)c1cc(C(F)(F)F)nn1C1CCC1    99
O/N=C(\CSc1ccncc1C(F)(F)F)c1cc(Cl)sc1Cl    143
COc1cccc(SC/C(=N\O)c2cc(Cl)sc2Cl)c1C    31
O/N=C(\CSc1cccc(Cl)c1)c1cc(Cl)sc1Cl    53
O/N=C(\CSc1cccc2ccccc12)c1cc(Cl)sc1Cl    23

---

study_target: Glucagon-like peptide 2 receptor (Homo sapiens)
Sequence (O95838 whole entry): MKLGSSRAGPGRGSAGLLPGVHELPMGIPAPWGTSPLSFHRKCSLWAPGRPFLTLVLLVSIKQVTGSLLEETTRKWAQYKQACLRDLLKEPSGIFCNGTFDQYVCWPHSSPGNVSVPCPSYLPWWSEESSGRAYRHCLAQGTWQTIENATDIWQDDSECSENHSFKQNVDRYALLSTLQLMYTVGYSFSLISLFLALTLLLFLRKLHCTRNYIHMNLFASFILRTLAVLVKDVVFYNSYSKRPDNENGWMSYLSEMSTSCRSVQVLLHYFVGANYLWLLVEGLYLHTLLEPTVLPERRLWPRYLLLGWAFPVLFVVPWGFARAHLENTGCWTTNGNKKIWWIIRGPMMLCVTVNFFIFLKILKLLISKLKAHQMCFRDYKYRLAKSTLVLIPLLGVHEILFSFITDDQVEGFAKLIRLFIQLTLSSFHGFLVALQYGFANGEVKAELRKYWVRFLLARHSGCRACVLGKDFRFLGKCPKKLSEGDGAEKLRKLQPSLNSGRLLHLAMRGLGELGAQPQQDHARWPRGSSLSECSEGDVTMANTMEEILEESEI
assay: Positive ago-allosteric modulation of GLP2R overexpressed in human SE302 cells assessed as placental alkaline phosphatase activation measured on day 3 by Alamar Blue assay
Type: cell-based
value_type: EC50 (nM)

H-DGSFSDEMNTILDNLAARDFINWLIQTKITD-OH    31
H-NTILDNLAARDFINWLIQTKITD-OH    1300

---

study_target: Glucagon-like peptide 2 receptor (Homo sapiens)
assay: Positive ago-allosteric modulation of GLP2R overexpressed in human SE302 cells assessed as placental alkaline phosphatase activation at 25 uM measured on day 3 by Alamar Blue assay relative to 10 pM GLP2
Type: cell-based
Overview of reported %max across a group of compounds:
value_type: %max (%)

O/N=C(\CSc1ccc(Cl)cc1)c1cc(Cl)sc1Cl    293
CC(C)(C)c1cccc(/C(CSc2ccccc2)=N/O)c1    244
O/N=C(\CSc1ccccc1)c1cccc(C(F)(F)F)c1    95
O/N=C(\CSc1ccc(F)cc1)c1cc(Cl)sc1Cl    945
O/N=C(\CSc1ccccc1)c1cccc(F)c1    54
O/N=C(\CSc1ccccc1)c1cccc(Br)c1    42
O/N=C(\CSc1ccccc1)c1cc(Cl)sc1Cl    701
O/N=C(\CSc1ccccc1)c1cccc(Cl)c1    46
COC(=O)c1ccccc1SC/C(=N\O)c1cc(Cl)sc1Cl    284
COc1cccc(SC/C(=N\O)c2cc(Cl)sc2Cl)c1    144
O/N=C(\CSc1ccccc1)c1cc(C(F)(F)F)cc(C(F)(F)F)c1    517

---

study_target: Glucagon-like peptide 2 receptor (Homo sapiens)
Sequence (whole entry): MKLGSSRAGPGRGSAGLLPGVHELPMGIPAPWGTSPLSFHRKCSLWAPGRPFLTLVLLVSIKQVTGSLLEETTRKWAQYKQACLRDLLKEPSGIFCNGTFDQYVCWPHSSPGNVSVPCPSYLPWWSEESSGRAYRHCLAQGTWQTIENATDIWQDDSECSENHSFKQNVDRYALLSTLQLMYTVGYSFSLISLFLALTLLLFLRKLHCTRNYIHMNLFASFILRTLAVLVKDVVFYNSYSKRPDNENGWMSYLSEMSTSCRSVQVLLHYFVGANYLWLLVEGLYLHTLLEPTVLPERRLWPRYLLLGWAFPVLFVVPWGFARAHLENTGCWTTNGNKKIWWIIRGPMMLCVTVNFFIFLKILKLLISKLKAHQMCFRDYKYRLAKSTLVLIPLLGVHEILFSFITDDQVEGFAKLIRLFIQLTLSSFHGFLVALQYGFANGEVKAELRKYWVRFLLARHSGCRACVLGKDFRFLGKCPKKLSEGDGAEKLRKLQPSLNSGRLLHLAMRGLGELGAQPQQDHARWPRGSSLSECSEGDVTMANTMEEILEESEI
assay: Positive ago-allosteric modulation of GLP2R overexpressed in human SE302 cells assessed as placental alkaline phosphatase activation at 25 uM measured on day 3 by Alamar Blue assay relative to 100 pM GLP2
Assay type: cell-based
%max of 70% or higher: MET. Under 70%: NOT MET.

O/N=C(\CSc1cccc(F)c1)c1cc(Cl)sc1Cl    MET
CC(C)Oc1cccc(/C(CSc2ccccc2)=N/O)c1    NOT MET
Cc1ccccc1SC/C(=N\O)c1cc(Cl)sc1Cl    MET
CC(C)(C)OC(=O)c1cc(/C(CSc2ccccc2)=N/O)cc(C(C)(C)C)c1O    NOT MET
COC(=O)c1ccccc1SC/C(=N\O)c1cc(Cl)sc1Cl    NOT MET
Cc1cc(F)ccc1SC/C(=N\O)c1cc(Cl)sc1Cl    MET
O/N=C(\CSc1ccc(Cl)cc1)c1cc(Cl)sc1Cl    NOT MET
O/N=C(\CSc1ccccc1)c1cc(C(F)(F)F)nn1C1CCCC1    MET
Cn1nc(C(F)(F)F)cc1/C(CSc1ccccc1)=N/O    NOT MET
Cc1cccc(SC/C(=N\O)c2cc(Cl)sc2Cl)c1C    NOT MET
O/N=C(\CSc1ccc(C(F)(F)F)cc1)c1cc(Cl)sc1Cl    NOT MET

---

study_target: Glucagon-like peptide 2 receptor (Homo sapiens)
assay: Positive ago-allosteric modulation of GLP2R overexpressed in human SE302 cells assessed as placental alkaline phosphatase activation at 12.5 uM measured on day 3 by Alamar Blue assay relative to 100 pM GLP2
Assay type: cell-based
%max of 60% or higher: True. Under 60%: False.

CC(C)(C)c1ccccc1SC/C(=N\O)c1cc(Cl)sc1Cl    False
COc1c(Br)cc(/C(CSc2ccccc2)=N/O)cc1C(C)(C)C    False
O/N=C(\CSc1ccccc1C(F)(F)F)c1cc(Cl)sc1Cl    False
Cc1ccc(SC/C(=N\O)c2cc(Cl)sc2Cl)c(C)c1    False
O/N=C(\CSc1ccccc1-c1ccccc1)c1cc(Cl)sc1Cl    True
COc1c(N(C)C)cc(/C(CSc2ccccc2)=N/O)cc1C(C)(C)C    False
COc1c(C(=O)OC(C)(C)C)cc(/C(CSc2ccccc2)=N/O)cc1C(C)(C)C    False
Cc1ccc(C)c(SC/C(=N\O)c2cc(Cl)sc2Cl)c1    False
O/N=C(\CSc1ccncc1-c1ccccc1)c1cc(Cl)sc1Cl    True
CCC(CC)n1nc(C(F)(F)F)cc1/C(CSc1ccccc1)=N/O    False
CCC(C)n1nc(C(F)(F)F)cc1/C(CSc1ccccc1)=N/O (configuration not stated)    True

---

study_target: UniProt O95838
assay: Positive ago-allosteric modulation of GLP2R overexpressed in human SE302 cells assessed as placental alkaline phosphatase activation at 50 uM measured on day 3 by Alamar Blue assay relative to 10 pM GLP2
Format: cell-based
Overview of reported %max across a group of molecules:
value_type: %max (%)

Cc1ccc(SC/C(=N\O)c2cc(Cl)sc2Cl)cc1    65
N#Cc1cccc(/C(CSc2ccccc2)=N/O)c1    8
COc1ccc(SC/C(=N\O)c2cc(Cl)sc2Cl)cc1    217
O/N=C(\CSc1ccccc1)c1ccccc1    4
COc1ccccc1SC/C(=N\O)c1cc(Cl)sc1Cl    78

---

study_target: Glucagon-like peptide 2 receptor (Homo sapiens)
assay: Positive ago-allosteric modulation of GLP2R overexpressed in human SE302 cells assessed as placental alkaline phosphatase activation at 25 uM measured on day 3 by Alamar Blue assay relative to 100 pM GLP2
Format: cell-based
API: label(entry) gives 1 if the entry's %max is strictly smaller than 60%; on equality or larger values it gives 0.

CC(C)(C)c1cccc(/C(CSc2ccccc2)=N/O)c1    1
COc1cccc(/C(CSc2ccccc2)=N/O)c1    1
O/N=C(\CSc1ccccc1)c1cc(Cl)sc1Cl    1
O/N=C(\CSc1ccccc1)c1cc(C(F)(F)F)cc(C(F)(F)F)c1    1
O/N=C(\CSc1ccccc1F)c1cc(Cl)sc1Cl    0
O/N=C(\CSc1ccc(F)cc1)c1cc(Cl)sc1Cl    0
CC(C)n1nc(C(F)(F)F)cc1/C(CSc1ccccc1)=N/O    0
O/N=C(\CSc1cccs1)c1cc(Cl)sc1Cl    1
